- System: UACC-257 melanoma
- method: NCI-60 one-dose screen, 48 h
- recordedConditions: 10 µM unless noted
Compounds without any hit were thinned out: in the full panel of roughly 83,000, 20% have a hit. Active and inactive are the calls of the source. Rule for the calls: active = growth percent below 10; inactive = the rest.
Outcome codes: active, inactive

In [3]: df
Out[3]:
                             chemicalstring     group
0       C=CCNc1nc(O)c(/C=C2\C=Nc3ncccc32)s1    active
1  O=C(NC1CCCCCC1)c1ccc2c(=O)n3c(nc2c1)CCCCC3  inactive
2  CNC(=O)c1cc(Oc2ccc3nc(NC(=O)c4cc(C(F)(F)F)cc(C(F)(F)F)c4)sc3c2)ccn1    active

====

- Test system: TK-10 renal
- method: NCI-60 one-dose screen, 48 h
- recordedConditions: 10 µM unless noted
About 83,000 compounds went through this panel and 20% of them were active in at least one assay; those are over-represented in the sample as a whole. Activity calls are given as the source filed them. Rule for the calls: active = growth percent below 10; inactive = the rest.
Outcome codes: active, inactive

molecule	group
CCN1CCN(c2cc(C(=O)Nc3cccc(Nc4ccc5c(OC)cccc5n4)c3)cc(C(F)(F)F)c2)CC1	inactive
COc1cc(C)cc(-c2c(-c3cc(N4CC(O)C4)nc(-c4cccnc4)n3)cnn2C)c1	inactive
CCOC(=O)c1c(C)n2c(=O)cc(C)c3c(OC(C)=O)c(OC(C)=O)cc1c32	inactive
CN(C)c1ccc(/C=C/C2=[N+](C)c3ccccc3C2(C)C)cc1	inactive
O=C1/C(=C/c2cccc(Br)c2)COc2ccc(O)c(O)c21	inactive
COc1ccc(-c2cc(-c3ccc(N(C)C)cc3)nc(NC(=O)c3cccnc3)n2)cc1	inactive
CCCCCC(C)(O)C(C(=O)O)c1ccccc1 (centres undefined)	inactive
COc1ccc(C(=O)C2OC3=C(C(=O)CC(C)(C)C3)C2c2cccc(Oc3ccccc3)c2)cc1 (centres undefined)	inactive
CN(C)CC1C(=O)O[C@H]2[C@H]1CC/C(COC(=O)NCc1ccc(Cn3c(=O)sn(CCCI)c3=O)cc1)=C\CC[C@@]1(C)O[C@@H]21 (some centres undefined)	active
CCN1CCN(C(=O)[C@]23CC[C@@H](C)[C@H](C)[C@@H]2C2=CC[C@@H]4[C@@]5(C)C/C(=C/c6ccncc6)C(=O)C(C)(C)[C@@H]5CC[C@@]4(C)[C@]2(C)CC3)CC1	inactive
CCN(CC)CCCC(Nc1c2ccc(Cl)cc2nc2ccc(OC)cc12)c1ccncc1 (centres undefined)	inactive
N#C/C(=N\Nc1ccccc1)C(=O)Nc1cc(-c2ccccc2)nn1-c1ccccc1	inactive
CCOC(=O)/C(=C\c1ccccc1Cl)P(=O)(OCC)OCC	inactive
COc1cccc(C2C(C#N)=C(N)Oc3c2ccc2ccccc32)c1 (centres undefined)	inactive
c1ccc(Cn2cc3c(c2)-c2nc(Nc4ccccc4)ncc2CC3)cc1	inactive
Nc1ncnc2c1N=C(c1ccc([N+](=O)[O-])cc1)CC(c1ccc3c(c1)OCO3)N2 (centres undefined)	inactive
CC(=O)Cc1nsc(NC(=O)c2cc(-c3cc(Cl)ccc3Cl)oc2C)n1	inactive
c1ccc2cc(Cn3cc[n+](Cc4ccc5ccccc5c4)c3)ccc2c1	active
COc1ccc(C2=C/C(=C\c3ccccc3O)C(=O)N2Cc2ccccc2)cc1	inactive

====

- System: BT-549 breast
- method: NCI-60 one-dose screen, 48 h
- recordedConditions: 10 µM unless noted
Compounds without any hit were thinned out: in the full panel of roughly 83,000, 20% have a hit. Activity calls are given as the source filed them. How the source made its calls: active means growth percent below 10; inactive means the rest.
Outcome codes: active, inactive

>>> print(df.to_string())
                                    compound       testedon     group
 0               CCOc1ccc(N2C(=O)CCSC2=S)cc1  BT-549 breast  inactive
 1    C=CCNc1ccc2c3c(cccc13)C(=O)N(CC=C)C2=O  BT-549 breast  inactive
 2  COc1ccc(C2=NN3C(C2)c2cc(Br)ccc2OC3c2ccncc2)cc1 (stereo unspecified)  BT-549 breast  inactive
 3  CC(=O)c1ccc(Nc2nccc(-c3ccc(Cl)cc3)n2)cc1  BT-549 breast  inactive
 4  COc1ccc(Cn2cc(C(=O)N=Nc3c(O)[nH]c4ccc(Br)cc34)nn2)cc1  BT-549 breast  inactive
 5  O=C1c2c(c3c4cccnc4[nH]c3c3ccc4ccccc4c23)C(=O)N1O  BT-549 breast  inactive
 6  O=c1cc(-c2nccc3c2[nH]c2ccccc23)c2cc(Cl)ccc2o1  BT-549 breast  inactive
 7       Oc1ccc(Cc2ccc(O)c3ncccc23)c2cccnc12  BT-549 breast  inactive
 8  CCOC(=O)/C=C1\S/C(=N\Nc2cc(=O)[nH]c3ccc(OC)cc23)N(c2ccccc2)C1=O  BT-549 breast  inactive
 9  O=C(NCCN1CCOCC1)c1cncnc1Nc1ccc2c(ccn2Cc2ccccn2)c1  BT-549 breast  inactive
10  Cn1nc(-c2ccc(Cl)cc2)nc2c(=O)n(C)c(=O)nc1-2  BT-549 breast    active
11                CC(=O)/C(Br)=C/c1ccc(Br)o1  BT-549 breast  inactive
12  COC(=O)[C@H](C)NC(=O)c1ccc(NC(=O)c2[nH]c(C)c(Cl)c2Cl)c(OCCN)c1  BT-549 breast  inactive
13  Cc1nc2ccccc2c(/C=C/c2ccc(Br)cc2)c1C(=O)/C=C/c1ccccc1  BT-549 breast  inactive
14  Nc1nc(N)c2c(n1)NC(c1cccc(Nc3ccnc4cc(C(F)(F)F)ccc34)c1)CC(c1ccc(Cl)cc1)=N2 (stereo unspecified)  BT-549 breast  inactive
15   CN(CCNc1ccc(C(=N)N)cc1)c1ccc(C(=N)N)cc1  BT-549 breast  inactive
16  c1ccc(Cn2cc3c(c2)-c2nc(Nc4ccccc4)ncc2CC3)cc1  BT-549 breast  inactive
17  CC(C)C(=O)Nc1ncc(C(=O)NCCN(Cc2ccccc2)C(=O)c2ccc(S(=O)(=O)Nc3ccccc3)cc2)s1  BT-549 breast  inactive
18  COc1ccc(C(=O)C2OC3=C(C(=O)CC(C)(C)C3)C2c2cccc(Oc3ccccc3)c2)cc1 (stereo unspecified)  BT-549 breast  inactive
19  CS(=O)(=O)Nc1cc(-c2ccc3ncnc(Nc4cccc(Cl)c4)c3c2)cnc1Cl  BT-549 breast    active
20                N#CSCc1cc(Cl)c(CSC#N)cc1Cl  BT-549 breast  inactive

====

- System: A498 renal
- method: NCI-60 one-dose screen, 48 h (100 = growth as untreated, 0 = no growth, -100 = all killed)
- recordedConditions: 10 µM unless noted
About 83,000 compounds went through this panel and 20% of them were active in at least one assay; those are over-represented in the sample as a whole.
Listed molecules paired with reported growth
observedProperty: growth (%)

>>> print(df.to_string())
                                    molecule  recordednumber
 0  CC(C)(C)[C@H](OCc1cn([C@H]2C[C@@H](O)[C@@H](CO)O2)c(=O)[nH]c1=O)c1ccc(C#Cc2ccccc2)cc1[N+](=O)[O-]              95
 1  C=C(C)Cn1c(SCC(=O)c2cccs2)nc2sc3c(c2c1=O)CCCC3            72.1
 2  COc1ccc(NC(=O)c2ccc(NC3=C(c4ccc(Cl)cc4)C(=O)NC3=O)cc2)cc1            87.5
 3  COc1cc2nc3cc([N+](=O)[O-])ccc3c(NCCCNCCO)c2cc1OC           -80.2
 4  Cc1nc2cccc(NCc3ccc(C(=O)NO)cc3)c2c(=O)n1-c1ccccc1            41.3
 5  COc1cc(CNC(=O)CCCC/C=C/C(C)C)ccc1OCc1cn(-c2cccc([N+](=O)[O-])c2)nn1            78.9
 6  CC(C)(C)c1ccc(C(=O)Nc2sc3c(c2C#N)CCC(=O)C3)cc1            89.8
 7  O=c1c2cccc3c(N4CCOCC4)ccc(c32)c2nc3ccccc3n12             101
 8  CCOC(=O)C1=C(c2ccccc2)N=C2N(c3ccccc3)N=C(C(C)=O)N2C1c1ccc(Br)cc1 (centres undefined)            42.9
 9  C=C1C(=O)O[C@H]2[C@H]1CC/C(COC(=O)NCc1ccc(Cn3c(=O)sn(CCCC)c3=O)cc1)=C\CC[C@@]1(C)O[C@@H]21             100
10  CS(=O)(=O)c1cccc(Nc2ncc3cc(-c4ccccc4Cl)ccc3n2)c1            5.57
11  Nc1c(C(=O)c2ccc(Cl)cc2)sc(Nc2ccccc2)c1-c1nc2ccccc2s1            46.2
12            Cc1nn(C)c2ncnc(Nc3ccccc3Br)c12            71.4
13  O=C(CNc1ncco1)Nc1ccc(S(=O)(=O)c2ccc(NC(=O)CNc3ncco3)cc2)cc1             100
14  CN(C)CCOc1nc2c3cc([N+](=O)[O-])ccc3nn2c2ccccc12            31.6
15  CCOC(=O)C#Cc1c(CC(=O)OCC)nnn1[C@H]1O[C@@H](CO)[C@@H]2OC(C)(C)O[C@@H]21             111
16    CNc1nc2ncc(-c3c(C)noc3C)cc2n1Cc1ccccc1           0.868
17  O=C(Nc1ccc2[nH]ncc2c1)c1csc(Nc2ccccc2)n1            22.2
18    Cn1ncc(CC(=O)O)c1-n1nnc2cc(Cl)ccc2c1=O             134
